Assignment: determine reported optical density for the given binders.
- target_under_test: mouse ACVR2A (mouse, UniProt P27038 20-135, limits assumed); note: test concentration or dose not given here
- Sequence (P27038 20-135 limits assumed): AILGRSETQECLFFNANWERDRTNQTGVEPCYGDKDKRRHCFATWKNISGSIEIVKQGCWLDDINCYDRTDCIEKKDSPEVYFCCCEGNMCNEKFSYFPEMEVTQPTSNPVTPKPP
- measurement_protocol: ELISA
Write the value in OD as a bare number.

# return recorded optical density for entry 365_F10 (antibody, V domains shown, Group II) VH: EVQLLESGGGLVQPGGSLRLSCAASGFTFDDYGMHWVRQAPGKGLEWVSGINYNGGYTSYADSVKGRFTISRDNSKNTLYLQMNSLRAEDTAVYYCARAATWHDTHLDYWGQGTLVTVSS VL: DIQMTQSPSSLSASVGDRVTITCRASQSIVTYVNWYQQKPGKAPKLLIYAATSRASGVPSRFSGSGSGTDFTLTISSLQPEDFATYYCQQSYELPLTFGGGTKVEIK
2.79

# return recorded optical density for entry 366_D03 (antibody, V domains shown, Group I) VH: EVQLLESGGGLVQPGGSLRLSCAASGFTFDSYGMHWVRQAPGKGLEWVSSINYNGGYTGYADSVKGRFTISRDNSKNTLYLQMNSLRAEDTAVYYCARAANWHDTHLDYWGQGTLVTVSS VL: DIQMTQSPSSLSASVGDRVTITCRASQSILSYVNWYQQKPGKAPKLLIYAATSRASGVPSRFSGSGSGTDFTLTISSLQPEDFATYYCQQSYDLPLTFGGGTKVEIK
2.38

# return recorded optical density for entry 365_E06 (antibody, V domains shown, Group II) VH: EVQLLESGGGLVQPGGSLRLSCAASGFTFDSYGMNWVRQAPGKGLEWVSGINYNGGYTGYADSVKGRFTISRDNSKNTLYLQMNSLRAEDTAVYYCARAATWHDTHLDYWGQGTLVTVSS VL: DIQMTQSPSSLSASVGDRVTITCRASQSILTYLNWYQQKPGKAPKLVIYAATSRASGVPSRFSGSGSGTDFTLTISSLQPEDFATYYCQQSYNTPLTFGGGTKVEIK
2.06

# return recorded optical density for entry 365_D04 (antibody, V domains shown, Group I) VH: EVQLLESGGGLVQPGGSLRLSCAASGFTFSDYGMHWVRQAPGKGLEWVAGINYNGGYKSYADSVKGRFTISRDNSKNTLYLQMNSLRAEDTAVYYCARAANWHDTALDYWGQGTLVTVSS VL: DIQMTQSPSSLSASVGDRVTITCRASQSISSYLNWYQQKPGKAPKLVIYAVTSRASGVPSRFSGSGSGTDFTLTISSLQPEDFATYYCQQSYDLPLTFGGGTKVEIK
2.39

# return recorded optical density for entry 365_E12 (antibody, V domains shown, Group III) VH: EVQLLESGGGLVQPGGSLRLSCAASGFTFSDYGMNWVRQAPGKGLEWVSNINYNGGYTGYADSVKGRFTISRDNSKNTLYLQMNSLRAEDTAVYYCARGANWHDTALDYWGQGTLVTVSS VL: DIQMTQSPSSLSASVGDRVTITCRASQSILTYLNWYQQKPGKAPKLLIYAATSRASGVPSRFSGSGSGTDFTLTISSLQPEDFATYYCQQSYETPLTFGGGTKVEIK
3.28
